Target: T1, NativeRPtag(large)_with_Tags_and_Cys (Thermoanaerobacter tengcongensis)
T1 chain: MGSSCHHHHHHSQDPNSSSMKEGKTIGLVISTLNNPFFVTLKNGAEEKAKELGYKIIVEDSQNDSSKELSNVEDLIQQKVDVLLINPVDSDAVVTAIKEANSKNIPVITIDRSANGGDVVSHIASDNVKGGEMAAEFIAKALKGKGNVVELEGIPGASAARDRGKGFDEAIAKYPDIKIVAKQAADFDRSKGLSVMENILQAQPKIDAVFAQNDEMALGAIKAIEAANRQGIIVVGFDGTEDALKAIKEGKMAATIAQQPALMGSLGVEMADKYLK
Assay: fluorescence anisotropy; KCl (3M)
parameter.measured: Kd (pM)
Answer format: numeric, pM implied, no suffix.

Problem: I'd like to know its Kd. The binder in question is PAELKLITK (modifications not checked) [RPtag(small) Nd8, Cd4]
Result: 66
